assay: Cycloheximide Counterscreen for Small Molecule Inhibitors of Shiga Toxin; details: cell reporter, cycloheximide protein synthesis inhibition counterscreen; further: read at 38.3 µM for the half of the compounds with a filed dose; 0% is about no effect
Hit rate of the full screen: of about 300,000 compounds, about 37,000 (12%) were called active. No stated cut-off is given here; in the data, active means max response mostly above about 13% (no sharp cut-off); inactive means mostly below about 14%. This is one part of a sample in which actives are shown more often than they occur.
Log the outcome using a class from true = active, false = inactive

- LINE_NOTATION: "COc1ccc(C(=O)NC2CCN(C(=S)Nc3ccccc3)CC2)cc1"
  CLASS_NAME: "false"
- LINE_NOTATION: "COc1ccccc1-c1cc(C(=O)N2CCCCC2)no1"
  CLASS_NAME: "true"
- LINE_NOTATION: "O=C(c1cc(-c2ccccc2O)on1)N1CCCC1"
  CLASS_NAME: "true"
- LINE_NOTATION: "O=C(c1cc(-c2cccs2)on1)N1CCCCC1"
  CLASS_NAME: "true"
- LINE_NOTATION: "Cc1cccc(NC(=O)C2CCN(S(=O)(=O)c3cccc4cccnc34)CC2)c1"
  CLASS_NAME: "false"

(Q) Look up the recorded call for COc1cccc(OCc2cc(C(=O)N3CCN(C(=O)c4ccco4)CC3)no2)c1 in this test.
(A) true

(Q) Look up the recorded call for COc1cccc(-c2cc(C(=O)N3CCN(c4ccccc4OC)CC3)no2)c1 in this test.
(A) false

(Q) Look up the recorded call for CNC(=O)C1CCN(S(=O)(=O)c2c(C)noc2/C=C/c2cccc(C)c2)CC1 in this test.
(A) false

----------
test: Cycloheximide Counterscreen for Small Molecule Inhibitors of Shiga Toxin; conditions: cell reporter, cycloheximide protein synthesis inhibition counterscreen; stronger effect = higher value; further: read at 38.3 µM for the half of the compounds with a filed dose; 0% is about no effect
Hit rate of the full screen: of about 300,000 compounds, about 37,000 (12%) were called active. The list comes from a sample in which actives are over-represented; it also holds close analogues and randomly drawn compounds.
Lab note: anything with max response at or over 10% counts as Satisfied; the rest go in Not satisfied.

The examples below pair each entry with its known result.
- COMPOUND: "Cc1ccc(C(=O)NC(=S)Nc2ccccc2C)cc1"
  CLASS_NAME: "Satisfied"
- COMPOUND: "O=C(Cc1ccccc1)Nc1cccc(NC(=O)c2ccccc2)c1"
  CLASS_NAME: "Not satisfied"

(Q) # check: max response of C/C(=N\NC(=O)CC(C)C)c1c(C(F)(F)F)[nH]n(-c2nc3ccccc3s2)c1=O is greater than or equal to 10%
(A) Satisfied

(Q) # check: max response of O=C(N/N=C/c1ccccn1)C12CC3CC(CC(C3)C1)C2 is greater than or equal to 10%
(A) Satisfied

(Q) # check: max response of O=C(N/N=C/c1ccccn1)c1ccc(S(=O)(=O)N2CCCCCC2)cc1 is greater than or equal to 10%
(A) Satisfied

----------
assay: Cycloheximide Counterscreen for Small Molecule Inhibitors of Shiga Toxin; conditions: cell reporter, cycloheximide protein synthesis inhibition counterscreen; stronger effect = higher value; further: read at 38.3 µM for the half of the compounds with a filed dose; 0% is about no effect
About 37,000 (12%) of roughly 300,000 compounds were called active. Only a selection was taken, and actives are over-represented in it overall.
The entries below come with measured max response values attached.
Write the value in % as a bare number.

- COMPOUND: "Cn1cc(C(=O)c2ccc(Cl)cc2Cl)cc1C(=O)NN"
  max response, %: -5.78
- COMPOUND: "COc1ccc(-c2cc3nc(C)c(CCC(=O)NC(C)CCc4ccco4)c(C)n3n2)c(OC)c1 (stereo not given)"
  max response, %: 8.95
- COMPOUND: "Cc1cc(C)nc(NS(=O)(=O)c2ccc(N3C(=O)C4CCCCC4C3=O)cc2)n1 (stereo not given)"
  max response, %: 1.2
- COMPOUND: "COc1cccc(-n2c(=S)sc3c(=O)n(-c4ccccc4C)c(SCC(=O)O)nc32)c1"
  max response, %: -1.2
- COMPOUND: "COc1ccc(C=Nc2cccc3ncccc23)cc1"
  max response, %: 5.61

(Q) Complete the entry with the larger response for Cc1cc(C)nc(NC(=O)Nc2ccccc2C(F)(F)F)n1
(A) 25.8

(Q) Complete the entry with the larger response for O=C(c1ccc(OC2CCN(C/C=C/c3ccc(F)cc3)CC2)cc1)N1CCCCC1
(A) -0.769

(Q) Complete the entry with the larger response for CCOc1ccc(OCC)c(-c2c(=O)n(OCc3ccc(Cl)cc3)c3ccccc3[n+]2[O-])c1
(A) -2.89

(Q) Complete the entry with the larger response for Cc1cc(C)nc(NC(=O)C(C)N2C(=O)c3ccccc3C2=O)n1 (stereo not given)
(A) -0.537

(Q) Complete the entry with the larger response for COc1cccc(CNCc2ccc3c(c2)OCO3)c1
(A) 7.15

(Q) Complete the entry with the larger response for CCCCCCCCCCCCC(NC(C)=O)(C(=O)OCC)C(=O)OCC
(A) -2.57

(Q) Complete the entry with the larger response for CCOC(=O)C(NC(C)=O)C(=O)Nc1ccc(OC)cc1 (stereo not given)
(A) -2.02

(Q) Complete the entry with the larger response for Nc1ccccc1SC(C[N+](=O)[O-])c1ccccc1 (stereo not given)
(A) 58.7

(Q) Complete the entry with the larger response for COc1cccc(C(=O)NC(=O)Nc2nc(C)cc(C(F)(F)F)n2)c1
(A) -1.67

(Q) Complete the entry with the larger response for CC(C)(COC(=O)Nc1ccccc1)COC(=O)Nc1ccccc1
(A) 19

(Q) Complete the entry with the larger response for CC(C)CC(=O)NC(=S)Nc1ccc(F)cc1F
(A) 23.2

(Q) Complete the entry with the larger response for CC(C)(C)C1CCC(OC(=O)CCC(=O)Nc2ccccc2)CC1 (stereo not given)
(A) 4.12

(Q) Complete the entry with the larger response for O=C(Cn1c(=O)n(CC2CS2)c2ccccc21)N1CCCCC1 (stereo not given)
(A) 0.367

(Q) Complete the entry with the larger response for COc1cccc(NC(=O)C(Sc2nc3ccccc3c(=O)n2CC(C)C)c2ccccc2)c1 (stereo not given)
(A) 0.135

(Q) Complete the entry with the larger response for CCOc1ccc(S(=O)(=O)N2CCC(C(=O)NCc3ccccn3)CC2)cc1Cl
(A) -1.51

(Q) Complete the entry with the larger response for CCCC(=O)Nc1c(O)c2ccccc2[nH]c1=O
(A) -3.15

(Q) Complete the entry with the larger response for COc1ccc2c(c1)CCc1cn3ncc(C#N)c3nc1-2
(A) -3.03

(Q) Complete the entry with the larger response for CCOC(=O)C1(Cc2ccccc2C)CCCN(S(C)(=O)=O)C1 (stereo not given)
(A) 2.45

(Q) Complete the entry with the larger response for CC(C)=C1SC(N2CCN(c3ccc(C)c(Cl)c3)CC2)=NC1=O
(A) -1.62
